The next entries give measured IC50 for Aldo-keto reductase family 1 member B1 (Rattus norvegicus).
assayMetric: IC50 (µM)

O=C(O)Cn1nc2n(Cc3ccc(F)c(F)c3)c3ccccc3n2c(=O)c1=O | 4.42
COc1ccc(Cn2/c(=N\NCC(=O)O)n(C(=O)C(=O)O)c3ccccc32)cc1 | 44.5
O=C(O)CN/N=c1\n(Cc2ccc(F)cc2)c2ccccc2n1C(=O)C(=O)O | 14.8
O=C(O)Cn1nc2n(Cc3ccc(C(F)(F)F)cc3)c3ccccc3n2c(=O)c1=O | 23.9
Cc1ccc(Cn2c3ccccc3n3c(=O)c(=O)n(CC(=O)O)nc23)cc1 | 13.3
O=C(O)Cn1nc2n(Cc3ccccc3)c3ccccc3n2c(=O)c1=O | 0.36

(I) O=C(O)Cn1nc2n(Cc3ccc(Cl)cc3)c3ccccc3n2c(=O)c1=O
(II) O=C(O)Cn1nc2n(CC(=O)O)c3ccccc3n2c(=O)c1=O
Lookup: Of I and II , whose reported IC50 is numerically smaller? Lab log: write the label of the selected item as the result.
Found: I

Entry source: ChEMBL document CHEMBL1134301
